This collection of values is drawn from ChEMBL document CHEMBL1127637.

Species on record: Oryctolagus cuniculus
Assay: In vitro antiplatelet activity against arachidonic acid induced malondialdehyde production
Type: functional
For each record, write down the corresponding IC50.
Give bare numbers, in nM.

Sample records with IC50:
In plain terms, CNC(=N)Nc1nc(-c2ccc(OC)cc2)c(-c2ccc(OC)cc2)s1 has a documented IC50 of 62

IC50 for COc1ccc(-c2nc(C(=O)N3CCCCC3CCO)sc2-c2ccc(OC)cc2)cc1 (configuration not stated) is 45

Switching to the query record.
Measured IC50 of C/N=C(/NC)Nc1nc(-c2ccc(OC)cc2)c(-c2ccc(OC)cc2)s1 : 970

###

Provide the reported IC50 of each item.
Species: Oryctolagus cuniculus
Assay: In vitro antiplatelet activity against arachidonic acid induced malondialdehyde production
Type: functional

Note to self: IC50 recorded for COc1ccc(-c2nc(C3=CCN(C)CC3)sc2-c2ccc(OC)cc2)cc1 was < 10 nM

The molecule listed as COc1ccc(-c2nc(/C=C/C(=O)O)sc2-c2ccc(OC)cc2)cc1 shows IC50 equal to > 100 nM

Consider COc1ccc(-c2nc(C(N)=O)sc2-c2ccc(OC)cc2)cc1 . Its measured IC50 is > 1000 nM

New cases:
Data point: COc1ccc(-c2nc(/C=C/C(=O)N3CCN(C)CC3)sc2-c2ccc(OC)cc2)cc1 ; IC50 = > 1000 nM
